Biological target: RSV postfusion F (postF), F deltaFP (Respiratory Syncytial Virus)
Experiment: BLI, IgG on anti-human IgG sensor, 100 nM antigen
test readout: Kd (nM)
# number only, unit nM dropped from output

Example cases with answers are listed next.
binder	reported result
ADI-41194 (antibody, V domains shown) VH: QVQLQESGPGLVKPSQMLSLTCTVSGDSISSGDYYWSWIRHHPGKGLEWIGYISYSGSTYNNPSLKSRVTVSVDTSKNQFFLKLTSVTAADTAVYYCARATKPYHSYFYMDVWGKGTTVTVSS VL: EIVLTQSPGTLSLSPGERATLSCRASQSGSRSYLAWYQQRPGQAPRLLIYGASNRATGIPDRFSGSGSGTDFTLTISRLEPEDFAVYYCQQYGNAPTFGGGTKVDIK	1.16
ADI-41155 (antibody, V domains shown) VH: QVQLQESGPGLVKPSETLSLTCTVSGGSIGNNFYYWGWIRQPPGKGLEWIGSIYYSGTTYDNPSLKSRVTISVEPSKNQFSLKLSSVTAADTAVYHCARRYCDSTRCYEAFDIWGQGTTVTVSS VL: SYELTQPPSASGTPGQRVTISCSGSSSNIGSNYVSWYQQLPGTAPKLLIYKNDQRPSGVPDRFSGSKSGTSASLAISGLRSEDEAEYYCAAWDDSLSGFYVFGTGTKVTVL	0.478
ADI-41182 (antibody, V domains shown) VH: QVQLVQSGAEVKKPGESLKISCQGSGYSFTSYWIGWVRQMPGKDLEWMGIIYPSDSDTRYSPSFQGQVTISVDKSINTAYLQWTSLKASDTAMYYCARCDGAVYWYFDLWGRGTLVTVSS VL: EIVLTQSPATLSVSPGERVTLSCRASRSVSSHLAWYQQKPGQAPRLLMYGASTRATGIPARFSGSGSGTEFTLTISSLQSEDFGVYYCQQYNNWPPALTFGGGTKLEIK	0.462

Please look at the following binder next.
**Q:** Can you share its Kd? I mean this binder: ADI-41189 (antibody, V domains shown) VH: QVQLVESGGGLVKPGGSLRLSCAASGFTFSSYSMNWVRQAPGKGLEWVSSMSSSSGYIDYADSVKGRFTISRDNAKNSLYLQMNSLRVEDTAVYYCARRNAVVVPSLMVVADYYYGMDVWGQGTTVTVSS VL: QSVLTQPPSVSGAPGQRVTISCTGSSSNIGAGYDVHWYQQLPGTAPKLLIYGNSNRPSGVPDRFSGSKSGTSASLAITGLQAEDEADYYCQSYDTSLSGPGYVFGTGTKLTVL
**A:** 0.608
